- assay notes: Drug accumulation in tumor to muscle of BALB/c mouse implanted with mouse 4T1 cells at 0.5 mg/kg, iv measured at 4 to 168 hrs
- Format: ADME, organism-based
- measurement context: in vivo, time 4-168 hrs
recorded endpoint: Drug uptake

# example entries with known answers
CCN1/C(=C/C=C2\CCCC(/C=C/C3=[N+](CCCOc4ccc(C(=O)O)cc4)c4ccccc4C3(C)C)=C2Cl)C(C)(C)c2ccccc21.[Br-]	Active
CCN1/C(=C/C=C2\CCCC(/C=C/C3=[N+](Cc4ccc(C(=O)O)cc4)c4ccccc4C3(C)C)=C2Cl)C(C)(C)c2ccccc21.[Br-]	Active
CCCN1/C(=C/C=C2\CCCC(/C=C/C3=[N+](CCCOc4ccc(C(=O)O)cc4)c4ccccc4C3(C)C)=C2Cl)C(C)(C)c2ccccc21.[Br-]	Active
Cc1ccc2c(c1)C(C)(C)C(/C=C/C1=C(Cl)C(=C/C=C3/N(CCCOc4ccc(C(=O)O)cc4)c4ccc(C)cc4C3(C)C)/CCC1)=[N+]2CCCOc1ccc(C(=O)O)cc1.[Br-]	Active

In the following, a different molecule is considered.
Query string: # query: Drug uptake of entry COC(=O)CNC(=O)c1ccc(OCCCN2/C(=C/C=C3\CCCC(/C=C/C4=[N+](CCCOc5ccc(C(=O)NCC(=O)OC)cc5)c5ccc6ccccc6c5C4(C)C)=C3Cl)C(C)(C)c3c2ccc2ccccc32)cc1.[Br-]
Result string: Active
